Molecular target: Vasa (Bombyx mori, UniProt O01378)
Construct: gene BmVLG
Sequence (O01378 135-400): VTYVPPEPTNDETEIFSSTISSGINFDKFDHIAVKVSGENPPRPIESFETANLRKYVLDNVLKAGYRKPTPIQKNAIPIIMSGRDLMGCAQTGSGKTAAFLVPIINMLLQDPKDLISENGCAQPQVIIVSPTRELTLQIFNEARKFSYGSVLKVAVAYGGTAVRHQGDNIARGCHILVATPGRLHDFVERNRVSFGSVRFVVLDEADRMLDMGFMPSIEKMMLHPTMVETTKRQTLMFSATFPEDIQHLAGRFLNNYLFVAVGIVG
Test: NMR CSP titration, fast exchange
Format: binding
ATTRIBUTE_MEASURED: Kd
Answer shape: numeric part, then the unit.

Summary for this compound, Nc1ncnc2c1ncn2[C@@H]1O[C@H](COP(=O)(O)OP(=O)(O)OP(=O)(O)O)[C@@H](O)[C@H]1O : Kd is 1600 µM
